src = ChEMBL document CHEMBL1201862

Tested on: MOLT-4
assay: NCI tumour cell line growth inhibition, 48 h
Active and inactive are the calls of the source. No stated cut-off is given here; in the data, active = GI50 up to about 1.1 µM and inactive = higher.
Measured GI50, listed per entry for reference.

These solved cases illustrate the format of a correct answer.
What value of GI50 has been recorded for this entry: C=CCN(N=O)C(=O)N(CCCCC(NC(C)=O)C(=O)NCc1ccccc1)Cc1ccccc1 (configuration not stated) 13.8 µM (inactive)

What value of GI50 has been recorded for this entry: CC(C)C(/C=C/c1ccccc1)=N\NC(=O)N/N=C(/C=C/c1ccccc1)C(C)C 16.4 µM (inactive)

// GI50 lookup, key: CC1=CC2(O)OC3(CC2=C(C)C)C(C)CCC13 (configuration not stated) > 100 µM (inactive)

GET /values?readout=GI50&item= Cc1cc(N(CCC#N)CCC#N)ccc1C(/N=N\c1ccc(C(=O)O)cc1)=N\NC(=O)c1cc(Cl)ccc1O > 100 µM (inactive)

Requested read-out: GI50. Entry: Cc1ccc(S(=O)(=O)N[C@H](C(=O)O)c2ccccc2)cc1 58.6 µM (inactive)

I would be grateful if you could share the reported GI50 for CC/C(Cl)=N\OC(=O)Nc1ccc(C#N)cc1 . 2.28 µM (inactive)

Next:
Any idea what GI50 was measured for Cc1nc2ccc([N+](=O)[O-])cc2c(=O)n1C(=S)Nc1cccc(Cl)c1 ? 17.9 µM (inactive)

Entry NCCNCC(O)CO (configuration not stated) : reported GI50 = ? > 100 µM (inactive)

Would you kindly share the measured GI50 for CC(C)=CCN(N=O)c1ncnc2[nH]cnc12 ? > 100 µM (inactive)

Any idea what GI50 was measured for CC(C)Cc1ccc(C(C)/C=C2\CCC(CN3CCCCC3)C2=O)cc1 (configuration not stated) ? 1.63 µM (inactive)

# get_value(readout='GI50', item= Cc1ccc(-c2c(C#N)c(-c3ccccc3)n(NS(=O)(=O)c3ccc(C)cc3)c(=O)c2C#N)cc1 ) 19.8 µM (inactive)

Given the compound CN(C(=O)c1ccncc1)c1ccccc1 , what is its reported GI50? > 100 µM (inactive)

Tell me the measured GI50 of CC(C)NC(=O)OCc1c(COC(=O)NC(C)C)c(-c2ccc[n+](COC(=O)Cc3ccccc3)c2)n2c1CCC2 , please. 6.76 µM (inactive)

---

Consider the following compounds and their measured GI50 readings.
System: LXFL 529
assay: NCI tumour cell line growth inhibition, 48 h
Calls of active or inactive are those of the source. Rule as the data show it: active = GI50 up to about 1.1 µM and inactive = higher.

Consider the compound shown here: CC(C)C(/C=C/c1ccccc1)=N\NC(=O)N/N=C(/C=C/c1ccccc1)C(C)C What is its recorded GI50? 23.2 µM (inactive)

Returns the measured GI50 for the input compound. Input: COc1cccc(-c2cc(O)c3cc(OC)c(OC)cc3n2)c1 63.1 µM (inactive)

# query: GI50 of entry COc1ccc(/C=C\c2cc(OC)c(O[Si](C)(C)C(C)(C)C)c(OC)c2)cc1 33.7 µM (inactive)

Fill in: GI50 of N#CC(C(=O)/C(=N\Nc1nc(S)nn1N)C(C#N)c1ccc(Cl)cc1)c1ccc(Cl)cc1 (stereo not drawn) is ___ > 100 µM (inactive)

Requested read-out: GI50. Entry: O=C(O)CCc1nn2c(nc1=O)sc1ccc3ccccc3c12 > 100 µM (inactive)

***
So what does the record say about GI50 for O=C(CN(Cc1ccccc1)Cc1ccccc1)N1CCc2c([nH]c3ccccc23)C1c1cccnc1 (stereo not drawn) ? 6.67 µM (inactive)

// query GI50 value for entry Cc1cccc2c(=O)cc(-c3ccccc3)[nH]c12 4.61 µM (inactive)

Which GI50 is reported for this compound? CCC/C(=N/NC(=O)C(N)=O)C(CC)C(=O)CCC(=O)N(Cc1ccccc1)Cc1ccccc1 (stereo not drawn) > 100 µM (inactive)

Using the record for CCOC(=O)C1=C(C)N(NC(N)=O)C2(O)CCCC(=O)C12C (stereo not drawn) , report its GI50. > 100 µM (inactive)

Could you share which GI50 value was measured for COCC(=O)CP(=O)(OC)OC ? > 100 µM (inactive)

Look up GI50 for this compound: Cc1cccc(CC(C)(C)C)c1NC(=O)C(=O)C(C(=O)c1ccc2ccccc2c1)C1OC(=O)c2ccccc21 (stereo not drawn) 7.01 µM (inactive)

Which measured GI50 value corresponds to O=C1CC[C@H]2CNC(=O)C[C@H]2C1 ? > 100 µM (inactive)
